experiment: Aqueous solubility of the phosphate in TRIS buffers at pH 7.4 at 37 C was determined; format: physicochemical; settings: TRIS buffer
measure: solubility

Solved entries:
molecule: CCCCC/C=C\C/C=C\C/C=C\C/C=C\CCCCOC(CO)CO
measure: solubility
result: < 0.1 µg/mL

molecule: CCCCC/C=C\C/C=C\C/C=C\C/C=C\CCCCOC(COP(=O)(O)O)COP(=O)(O)O
measure: solubility
result: > 5000 µg/mL

Now for the molecule whose solubility we want.
Assign solubility to the following record: CCCCC/C=C\C/C=C\C/C=C\C/C=C\CCCCOC(CO)COP(=O)(O)O (stereo not drawn)
> 5000 µg/mL

###

The entries below come with measured half-life values attached.
test system: alkaline phosphatase; assay: Half-life in alkaline phosphatase solution at 37 C (n = 2); type: ADME
Quick note: give the figure in min, leave out the unit.

molecule: CCCCC/C=C\C/C=C\C/C=C\C/C=C\CCCCOC(CO)COP(=O)(O)O (configuration not stated)
numeric_readout: 4.6

Find the measured half-life of `CCCCC/C=C\C/C=C\C/C=C\C/C=C\CCCCOC(COP(=O)(O)O)COP(=O)(O)O` with alkaline phosphatase as test system.
1.6

###

The entries below come with measured half-life values attached.
experiment: Half-life in 4% cornea homogenate at 37 C (n = 3); assay type: ADME, tissue-based
Quick note: give the figure in min, leave out the unit.

compound: CCCCC/C=C\C/C=C\C/C=C\C/C=C\CCCCOC(COP(=O)(O)O)COP(=O)(O)O
u: min
half-life: 17.2

Now for the compound whose half-life we want.
Assign half-life to the following record: CCCCC/C=C\C/C=C\C/C=C\C/C=C\CCCCOC(CO)COP(=O)(O)O (configuration not stated)
18.1

###

assay: Half-life in 10% liver homogenate at 37 C (n = 3); type: ADME, tissue-based
measure: half-life (min)
Quick note: give the figure in min, leave out the unit.

molecule: CCCCC/C=C\C/C=C\C/C=C\C/C=C\CCCCOC(COP(=O)(O)O)COP(=O)(O)O
half-life / min: 6.4

Now for the molecule whose half-life we want.
Assign half-life to the following record: CCCCC/C=C\C/C=C\C/C=C\C/C=C\CCCCOC(CO)COP(=O)(O)O (configuration not stated)
7.1
